# Assayed target: UDP-N-acetylmuramoyl-tripeptide--D-alanyl-D-alanine ligase (Escherichia coli (strain K12), UniProt P11880)
# Sequence (P11880 whole entry): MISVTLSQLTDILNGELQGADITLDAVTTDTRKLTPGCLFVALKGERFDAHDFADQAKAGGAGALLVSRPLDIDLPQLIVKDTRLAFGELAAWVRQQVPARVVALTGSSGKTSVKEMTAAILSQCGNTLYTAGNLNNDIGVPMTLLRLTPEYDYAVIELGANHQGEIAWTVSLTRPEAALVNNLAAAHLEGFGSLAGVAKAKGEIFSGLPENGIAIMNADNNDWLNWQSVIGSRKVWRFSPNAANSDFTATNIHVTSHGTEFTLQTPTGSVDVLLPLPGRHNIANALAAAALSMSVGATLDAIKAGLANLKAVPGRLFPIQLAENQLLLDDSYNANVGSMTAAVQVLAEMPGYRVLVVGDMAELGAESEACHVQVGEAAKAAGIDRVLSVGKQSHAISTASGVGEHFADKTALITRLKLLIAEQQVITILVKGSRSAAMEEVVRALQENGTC
# Assay info: Enzymatic Assay
# Stated conditions: pH 8; 37 °C
pIC50: −log10 of the molar value.
# pIC50 annotations
Measured metric: pIC50

[[record]]
compound = "COc1ccc(S(=O)(=O)NCC(CN2CCOCC2)OP(=O)(O)O)cc1 (stereo unspecified)"
measured_metric = "pIC50"
recorded_value = 3.28

[[record]]
compound = "O=P(O)(O)OC(CNS(=O)(=O)c1ccc(C(F)(F)F)cc1)CN1CCOCC1 (stereo unspecified)"
measured_metric = "pIC50"
recorded_value = 3.62

[[record]]
compound = "Cc1ccc(S(=O)(=O)NCC(CN2CCOCC2)OP(=O)(O)O)cc1 (stereo unspecified)"
measured_metric = "pIC50"
recorded_value = 3.25

[[record]]
compound = "O=P(O)(O)OC(CNS(=O)(=O)c1cccc(C(F)(F)F)c1)CN1CCOCC1 (stereo unspecified)"
measured_metric = "pIC50"
recorded_value = 3.82

[[record]]
compound = "O=P(O)(O)OC(CNS(=O)(=O)c1ccc(F)cc1)CN1CCOCC1 (stereo unspecified)"
measured_metric = "pIC50"
recorded_value = 3.57

[[record]]
compound = "CCc1ccc(S(=O)(=O)NCC(CN2CCOCC2)OP(=O)(O)O)cc1 (stereo unspecified)"
measured_metric = "pIC50"
recorded_value = 3.44


* * *

# Assayed target: UDP-N-acetylmuramoyl-L-alanyl-D-glutamate--L-lysine ligase (Staphylococcus aureus (strain NCTC 8325 / PS 47))
# Sequence (Q2FZP6 whole entry): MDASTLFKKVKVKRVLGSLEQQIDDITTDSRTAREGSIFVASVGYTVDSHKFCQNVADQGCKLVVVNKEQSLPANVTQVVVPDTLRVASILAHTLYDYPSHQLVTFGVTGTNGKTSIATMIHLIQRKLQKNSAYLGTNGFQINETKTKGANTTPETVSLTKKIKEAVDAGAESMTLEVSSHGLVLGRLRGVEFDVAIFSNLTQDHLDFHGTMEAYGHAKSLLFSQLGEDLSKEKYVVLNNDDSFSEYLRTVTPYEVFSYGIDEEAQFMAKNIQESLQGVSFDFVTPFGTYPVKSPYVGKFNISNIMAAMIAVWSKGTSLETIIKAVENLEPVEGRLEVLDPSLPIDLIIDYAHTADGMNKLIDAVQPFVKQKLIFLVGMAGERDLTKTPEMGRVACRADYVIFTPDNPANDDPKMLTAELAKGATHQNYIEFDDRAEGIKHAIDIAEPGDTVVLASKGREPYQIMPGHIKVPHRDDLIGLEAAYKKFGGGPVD
# Assay info: Enzymatic Assay
# Stated conditions: pH 8; 37 °C
# Protocol: Compounds were tested for their inhibition of the addition of L-Ala, D-Glu, L-Lys or D-Ala-D-Ala to nucleotide precursors catalyzed by MurC from Escherichia coli, MurD from E. coli, MurE from Staphylococcus aureus, and MurF from E coli. The detection of the orthophosphate generated during the reaction was based on the colorimetric Malachite green method.
pIC50: −log10 of the molar value.
Values of pIC50 greater than or equal to 4 map to Criterion met; values below map to Criterion not met.

[[record]]
molecule = "CCc1ccc(S(=O)(=O)NCC(CN2CCOCC2)OP(=O)(O)O)cc1 (stereo unspecified) [HEA derivative, 7f]"
assigned_category = "Criterion met"

[[record]]
molecule = "O=P(O)(O)OC(CNS(=O)(=O)c1ccc(C(F)(F)F)cc1)CN1CCOCC1 (stereo unspecified) [MurC/D/E/F inhibitor (compound 68)]"
assigned_category = "Criterion met"

[[record]]
molecule = "COc1ccc(S(=O)(=O)NCC(CN2CCOCC2)OP(=O)(O)O)cc1 (stereo unspecified)"
assigned_category = "Criterion met"

[[record]]
molecule = "O=P(O)(O)OC(CNS(=O)(=O)c1cccc(C(F)(F)F)c1)CN1CCOCC1 (stereo unspecified) [HEA derivative, 7d]"
assigned_category = "Criterion not met"


* * *

# Assayed target: UDP-N-acetylmuramate--L-alanine ligase (Escherichia coli (strain K12), UniProt P17952)
# Sequence (P17952 whole entry): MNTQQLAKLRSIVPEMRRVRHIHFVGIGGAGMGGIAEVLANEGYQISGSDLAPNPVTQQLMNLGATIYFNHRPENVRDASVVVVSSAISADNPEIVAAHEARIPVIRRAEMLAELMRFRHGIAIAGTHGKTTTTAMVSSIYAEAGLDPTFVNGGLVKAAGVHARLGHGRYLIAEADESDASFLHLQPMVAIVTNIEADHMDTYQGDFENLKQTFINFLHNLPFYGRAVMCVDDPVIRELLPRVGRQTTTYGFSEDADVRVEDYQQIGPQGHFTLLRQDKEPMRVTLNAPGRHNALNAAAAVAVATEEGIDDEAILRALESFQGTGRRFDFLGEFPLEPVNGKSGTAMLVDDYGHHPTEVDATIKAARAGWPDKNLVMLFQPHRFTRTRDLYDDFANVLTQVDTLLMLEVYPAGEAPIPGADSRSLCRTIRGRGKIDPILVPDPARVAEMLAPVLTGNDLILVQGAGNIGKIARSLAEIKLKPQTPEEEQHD
# Assay info: Enzymatic Assay
# Stated conditions: pH 8; 37 °C
pIC50: −log10 of the molar value.
pIC50 overview
Measured metric: pIC50

[[record]]
compound = "O=P(O)(O)OC(CNS(=O)(=O)c1cccc(C(F)(F)F)c1)CN1CCOCC1 (stereo unspecified) [HEA derivative, 7d]"
recorded_value = 3.28

[[record]]
compound = "Cc1ccc(S(=O)(=O)NCC(CN2CCOCC2)OP(=O)(O)O)cc1 (stereo unspecified) [HEA derivative, 7e]"
recorded_value = 3.27

[[record]]
compound = "CCc1ccc(S(=O)(=O)NCC(CN2CCOCC2)OP(=O)(O)O)cc1 (stereo unspecified) [HEA derivative, 7f]"
recorded_value = 3.12

[[record]]
compound = "COc1ccc(S(=O)(=O)NCC(CN2CCOCC2)OP(=O)(O)O)cc1 (stereo unspecified)"
recorded_value = 3.31

[[record]]
compound = "O=P(O)(O)OC(CNS(=O)(=O)c1ccc(F)cc1)CN1CCOCC1 (stereo unspecified) [HEA derivative, 7b]"
recorded_value = 3.10

[[record]]
compound = "O=P(O)(O)OC(CNS(=O)(=O)c1ccc(C(F)(F)F)cc1)CN1CCOCC1 (stereo unspecified) [MurC/D/E/F inhibitor (compound 68)]"
recorded_value = 3.70

